// provenance: PubChem BioAssay AID1159580

Measured normalized growth, listed per entry for reference.
Assay: chemical genetic growth profiling, strain panel (AID 1159580);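 also: tested at 20 µM; growth read once vehicle control cultures reached saturation at 30 °C; 1 = growth at the plate median or of vehicle wells; lower values mean less growth of the strain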
Settings: S. cerevisiae deletion strains, growth OD, locus YJL166W, strain qcr8, hits give low values
In all, about 5,500 compounds went through this assay and about 2,000 (36%) were called active. Inconclusive results (about 18%) are left out. The list shows a part of the results.
Result type: normalized growth

Compound	Result type	Observed
CO[C@H]1[C@H](O)[C@H](O[C@H]2CC[C@]3(C)C4CC[C@]5(C)C(C6=CC(=O)OC6)CC[C@]5(O)C4CC[C@@H]3C2)O[C@@H](C)[C@@H]1O (stereo partly drawn)	normalized growth	1
CC1CC2C3CCC4=CC(=O)C=C[C@]4(C)[C@@]3(F)[C@@H](O)C[C@]2(C)[C@@]1(O)C(=O)CO (stereo partly drawn)	normalized growth	1
CC(C)(O)[C@@H]1[C@H]2OC(=O)[C@@H]1[C@]1(O)C[C@H]3O[C@]34C(=O)O[C@H]2[C@]14C	normalized growth	1
C=C(C)C1CNC(C(=O)O)C1CC(=O)O (stereo not drawn)	normalized growth	0.996
Oc1cc(Cl)ccc1Oc1ccc(Cl)cc1Cl	normalized growth	0.0623
CC(=O)O[C@@H]1C[C@@]2(C)C(CC[C@@H]2C(C)=O)C2CCC3=CC(=O)CC[C@]3(C)C21 (stereo partly drawn)	normalized growth	1.01
C[C@]12CCC(=O)C=C1CCC1C2CC[C@@]2(C)C1CC[C@@H]2O (stereo partly drawn)	normalized growth	0.986
CCC(=O)O[C@H]1CCC2C3CCC4=CC(=O)CC[C@]4(C)C3CC[C@@]21C (stereo partly drawn)	normalized growth	0.865
COC1=C(OC)C(=O)C(C/C=C(\C)CC/C=C(\C)CC/C=C(\C)CC/C=C(/C)CC/C=C(\C)CC/C=C(\C)CC/C=C(\C)CC/C=C(\C)CC/C=C(\C)CCC=C(C)C)=C(C)C1=O	normalized growth	0.978
CC(=O)[C@H]1CCC2C3CCC4=CC(=O)CC[C@]4(C)C3CC[C@@]21C (stereo partly drawn)	normalized growth	0.916
CCOC(=O)C(=O)C1(C(=O)OCC)Oc2cc(OC)cc(OC)c2C(=O)C1c1ccccc1 (stereo not drawn)	normalized growth	0.926
N=c1ccn2c(n1)O[C@@H]1C2O[C@H](CO)[C@H]1O (stereo partly drawn)	normalized growth	0.99
CS(=O)(=O)c1ccc(C2=C(c3ccccc3)C(=O)OC2)cc1	normalized growth	0.986
CC1=C(C/C=C(\C)CCC[C@H](C)CCC[C@H](C)CCCC(C)C)C(=O)c2ccccc2C1=O	normalized growth	1
S=c1nc[nH]c2nc[nH]c12	normalized growth	1.01
CC(=O)O[C@H]1[C@@H]2[C@@H](OC(=O)Cc3ccccc3)[C@@H](C)C[C@]2(OC(C)=O)C(=O)/C(C)=C/[C@H]2[C@H](CC[C@@]13CO3)C2(C)C	normalized growth	0.981
ClC1=C(Cl)C2(Cl)C3C4C=CC(C4)C3C1(Cl)C2(Cl)Cl (stereo not drawn)	normalized growth	0.99
CCOC(=O)C(C)(C)Oc1ccc(Cl)cc1	normalized growth	0.978

---

Experiment: chemical genetic growth profiling, strain panel (AID 1159580);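 also: tested at 20 µM; growth read once vehicle control cultures reached saturation at 30 °C; 1 = growth at the plate median or of vehicle wells; lower values mean less growth of the strain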
Conditions: S. cerevisiae deletion strains, growth OD, locus YDR297W, strain sur2, hits give low values
Screen size: about 5,500 compounds; about 2,000 (36%) were called active. About 18% were inconclusive and are not listed. The list shows a part of the results.
Result type: normalized growth

Compound	Observed
CC(C)(O)[C@@H]1[C@H]2OC(=O)[C@@H]1[C@]1(O)C[C@H]3O[C@]34C(=O)O[C@H]2[C@]14C	0.993
O=C(O)c1cc2ccccc2[nH]1	0.981
CCCCCCCCCCCCCCCC[N+](C)(C)C	0.0606
O=C(O)c1cc2ccccc2c(Cc2c(O)c(C(=O)O)cc3ccccc23)c1O	0.995
O=C(O)c1c2ccccc2cc2ccccc12	0.99
COC1=C(OC)C(=O)C(C/C=C(\C)CC/C=C(\C)CC/C=C(\C)CC/C=C(/C)CC/C=C(\C)CC/C=C(\C)CC/C=C(\C)CC/C=C(\C)CC/C=C(\C)CCC=C(C)C)=C(C)C1=O	0.975
CCC(=O)O[C@H]1CCC2C3CCC4=CC(=O)CC[C@]4(C)C3CC[C@@]21C (some centres undefined)	0.968
CN(C)C(=S)SSC(=S)N(C)C	0.0586
NC(=O)c1ccc[n+]([C@@H]2O[C@H](COP(=O)([O-])OP(=O)(O)OC[C@H]3O[C@@H](n4cnc5c(N)ncnc54)[C@H](O)[C@@H]3O)[C@@H](O)[C@H]2O)c1	1.04
